Tested on: NCI/ADR-RES
procedureDetails: NCI tumour cell line growth inhibition, 48 h
The source made the active and inactive calls. No stated cut-off is given here; in the data, active = GI50 up to about 1.1 µM and inactive = higher.
experimentalReadout: GI50

- compound: "O=C(NCCCl)Nc1ccccc1"
  experimentalReadout: "GI50"
  reported: "> 100 µM (inactive)"
- compound: "COC(=NC(C)C)NC(C)C"
  experimentalReadout: "GI50"
  reported: "> 100 µM (inactive)"
- compound: "CC(C)(CC(=O)Nc1ccccc1)C(=O)O"
  experimentalReadout: "GI50"
  reported: "> 100 µM (inactive)"
- compound: "O=C1C=CC2(C=C1)O[C@H](COCc1ccccc1)[C@@H](COCc1ccccc1)O2"
  experimentalReadout: "GI50"
  reported: "1.83 µM (inactive)"
- compound: "Cc1nc2[nH]ccn2c(=O)c1CCCl"
  experimentalReadout: "GI50"
  reported: "26.5 µM (inactive)"
- compound: "C=C(C)[C@H]1C=C[C@@H](OC(C)=O)[C@@]2(COC(C)=O)[C@H](OC(=O)CCC)[C@H]3[C@@H](OC(C)=O)[C@@H](C)C[C@]3(O)C(=O)[C@@](C)(OC(C)=O)[C@H]12"
  experimentalReadout: "GI50"
  reported: "42.5 µM (inactive)"
- compound: "CCCCCCCCCCCCCCCCNc1nc(=O)n(C2OC(C)C(O)C2O)cc1F (centres undefined)"
  experimentalReadout: "GI50"
  reported: "18.9 µM (inactive)"
- compound: "CC(C)=CCC[C@@H](C)[C@H]1CC[C@@]2(C)[C@@H]3CC[C@H]4C(C)(C)[C@@H](O)CC[C@@]45C[C@@]35CC[C@]12C"
  experimentalReadout: "GI50"
  reported: "23.4 µM (inactive)"
- compound: "O=C(CC(NC(=O)OCc1ccccc1)C(=O)NC1Cc2ccccc2C1=O)OCc1ccccc1 (centres undefined)"
  experimentalReadout: "GI50"
  reported: "> 100 µM (inactive)"

----------
Recorded GI50 for the following compounds
Tested on: SF-295
procedureDetails: NCI tumour cell line growth inhibition, 48 h
Activity calls are given as the source filed them. No stated cut-off is given here; in the data, active = GI50 up to about 1.1 µM and inactive = higher.

- compound: "COc1cc(OCc2nc3ccccc3n3cccc23)cc(OC)c1OC"
  GI50: "11.3 µM (inactive)"
- compound: "COC(=O)C(C/C=C(\\C)c1ccc(Cl)cc1)C(C)=O (stereo not given)"
  GI50: "39.9 µM (inactive)"
- compound: "c1ccc2c(c1)CCCC/C2=N/OCC1CO1 (stereo not given)"
  GI50: "58.7 µM (inactive)"
- compound: "COC1C(OC(=O)c2ccc(C)[nH]2)C(O)C(Oc2ccc3c(O)c(NC(=O)c4c[nH]c(C(=O)Nc5c(O)c6ccc(OC7OC(C)(C)C(OC)C(OC(=O)c8ccc(C)[nH]8)C7O)c(C)c6oc5=O)c4C)c(=O)oc3c2C)OC1(C)C (stereo not given)"
  GI50: "4.01 µM (inactive)"
- compound: "Nc1ncnc2c1ncn2[C@H]1CC[C@@H](NO)C1"
  GI50: "> 100 µM (inactive)"

----------
Tested on: SNB-19
procedureDetails: NCI tumour cell line growth inhibition, 48 h
Calls of active or inactive are those of the source. Cut-off read from the data, not from the text of the source: active = GI50 up to about 1.1 µM and inactive = higher.
Possible outcomes: Yes = active, No = inactive

- compound: "NCC(NC(=O)OCc1ccccc1)C(=O)O (centres undefined)"
  label: "No"
- compound: "CC(Cc1ccc(O)cc1)NCC(O)c1ccc(O)c(O)c1 (centres undefined)"
  label: "No"
- compound: "Cc1cc2cc3c(C)cc(=O)oc3c(C)c2o1"
  label: "No"
- compound: "CC(C)(C)OC(=O)NC(CCCCNC(=O)OCc1ccccc1)C(=O)NC(CCCCNC(=O)OCc1ccccc1)C(=O)ON1C(=O)CCC1=O (centres undefined)"
  label: "No"
- compound: "O=C(CCN1CCN(c2ccccc2)CC1)N1CCc2c([nH]c3ccccc23)C1c1cccnc1 (centres undefined)"
  label: "No"
- compound: "COC1C(OC(=O)c2ccc(C)[nH]2)C(O)C(Oc2ccc3c(O)c(NC(=O)c4c[nH]c(C(=O)Nc5c(O)c6ccc(OC7OC(C)(C)C(OC)C(OC(=O)c8ccc(C)[nH]8)C7O)c(C)c6oc5=O)c4C)c(=O)oc3c2C)OC1(C)C (centres undefined)"
  label: "Yes"
- compound: "CSc1nnc(C(C#N)C#N)nn1"
  label: "No"
- compound: "O=C1C=CC2(C=C1)O[C@H](COCc1ccccc1)[C@@H](COCc1ccccc1)O2"
  label: "No"
- compound: "N=C(N)NCCCCCCC(=O)NC(O)C(=O)NCCCCNCCCN (centres undefined)"
  label: "No"

----------
Recorded GI50 for the following molecules
Tested on: XF498
procedureDetails: NCI tumour cell line growth inhibition, 48 h
Calls of active or inactive are those of the source. Cut-off read from the data, not from the text of the source: active = GI50 up to about 1.1 µM and inactive = higher.
experimentalReadout: GI50

- molecule: "CCc1ccc(Nc2ccc([N+](=O)[O-])cc2[N+](=O)[O-])cc1"
  reported: "> 100 µM (inactive)"
- molecule: "C=CCC(O)c1cc(OC)ccc1OC (stereo not given)"
  reported: "> 100 µM (inactive)"
- molecule: "COc1cc(C(=O)C/C(CCC(=O)Nc2ccc(Cl)cc2Cl)=N/Nc2nnc(C)n2N)ccc1O"
  reported: "> 100 µM (inactive)"
- molecule: "Cc1ccc(-c2cc(=O)c3cc(C)c(C)c(C(=O)O)c3o2)cc1"
  reported: "> 100 µM (inactive)"
- molecule: "O=C(Nc1cc(Cl)ccc1Cl)c1cc2cccc(Cl)c2oc1=O"
  reported: "24 µM (inactive)"
- molecule: "CC(O)c1ccc[n+](Cc2ccccc2)c1 (stereo not given)"
  reported: "> 400 µM (inactive)"
- molecule: "O=C(O)C(CO)NC(=O)n1c2ccccc2c2ccccc21 (stereo not given)"
  reported: "> 100 µM (inactive)"
- molecule: "CCC(=O)CC(=O)CCC(=O)Nc1cc(C)ccc1C"
  reported: "> 100 µM (inactive)"
- molecule: "CNC(SC)=C1C(=O)OC(C)(C)OC1=O"
  reported: "> 100 µM (inactive)"
- molecule: "CCOC(C/N=c1/nc(N(C)C)ss1)OCC"
  reported: "15 µM (inactive)"

----------
Recorded GI50 for the following compounds
Tested on: HOP-92
procedureDetails: NCI tumour cell line growth inhibition, 48 h
The source made the active and inactive calls. No stated cut-off is given here; in the data, active = GI50 up to about 1.1 µM and inactive = higher.

- compound: "Clc1ccc(Cc2nc3ccccc3o2)cc1"
  targetSystem: "HOP-92"
  GI50: "> 100 µM (inactive)"
- compound: "CCNC(=S)N/N=C(/C)c1cccc(/C(C)=N\\NC(=S)NCC)n1"
  targetSystem: "HOP-92"
  GI50: "1.69 µM (inactive)"
- compound: "COC(=O)C(C/C=C(\\C)c1ccc(Cl)cc1)C(C)=O (centres undefined)"
  targetSystem: "HOP-92"
  GI50: "19.5 µM (inactive)"
- compound: "Cc1ccc(Cl)c2c(=O)cc(-c3ccccc3)[nH]c12"
  targetSystem: "HOP-92"
  GI50: "38.8 µM (inactive)"
- compound: "CC(C)(C)Nc1noc(=O)n1C(C)(C)C"
  targetSystem: "HOP-92"
  GI50: "> 100 µM (inactive)"
- compound: "Cc1cccc2c1C(=O)[C@](C)([C@]1(C)Nc3cccc(C)c3C1=O)N2"
  targetSystem: "HOP-92"
  GI50: "27.3 µM (inactive)"
- compound: "CNC(=O)OCC1=C(COC(=O)NC)CN(c2ccccc2)C1"
  targetSystem: "HOP-92"
  GI50: "> 100 µM (inactive)"
- compound: "O=C(O)CN(CC(=O)O)C(C(=O)O)c1ccccc1 (centres undefined)"
  targetSystem: "HOP-92"
  GI50: "> 100 µM (inactive)"
- compound: "COc1cc2c(cc1OCCCCCN1C(=O)c3cccc4cccc(c34)C1=O)N=C[C@@H]1CCCN1C2=O"
  targetSystem: "HOP-92"
  GI50: "0.142 µM (active)"
- compound: "COCc1nc2c(OC)c(-c3nc4ccc(N5CCN(C)CC5)cc4[nH]3)cc(OC)c2[nH]1"
  targetSystem: "HOP-92"
  GI50: "> 100 µM (inactive)"
- compound: "CCN(CCCl)c1cc(CN(C)C)cc(NC(=O)c2ccc(C(=O)Nc3cccc(N(CCCl)NN)c3)cc2)c1"
  targetSystem: "HOP-92"
  GI50: "0.0789 µM (active)"
- compound: "N#C/C(=C1\\OC(=N)C(c2ccc(Cl)cc2Cl)C1=O)c1ccc(Cl)cc1Cl (centres undefined)"
  targetSystem: "HOP-92"
  GI50: "80.5 µM (inactive)"
- compound: "O=c1[nH]nc(Cc2ccc(Cl)cc2)n1/N=C/c1ccc([N+](=O)[O-])o1"
  targetSystem: "HOP-92"
  GI50: "4.57 µM (inactive)"
- compound: "CN(C)CCOc1ccc2[nH]c(C(=O)N3CC(CCl)c4c3cc(NC(=O)OCc3ccc([N+](=O)[O-])cc3)c3ccccc43)cc2c1 (centres undefined)"
  targetSystem: "HOP-92"
  GI50: "1.5 µM (inactive)"
- compound: "C/C(=C\\c1csc(C)n1)[C@@H]1C[C@@H]2O[C@]2(C)CCC[C@H](C)[C@H](O)[C@@H](C)C(=O)C(C)(C)[C@@H](O)CC(=O)O1 [PATUPILONE]"
  targetSystem: "HOP-92"
  GI50: "< 0.0001 µM (active)"
- compound: "CN(C)P(=O)(/C(N)=N/Nc1ccc([N+](=O)[O-])cc1)N(C)C"
  targetSystem: "HOP-92"
  GI50: "41.4 µM (inactive)"
- compound: "CC1=C(CO)C(=O)O[C@@H]([C@@H](C)[C@H]2CC[C@H]3[C@@H]4C[C@@H](O)[C@@]5(O)CC=CC(=O)[C@]5(C)[C@H]4CC[C@]23C)C1 [JABOROSALACTONE D]"
  targetSystem: "HOP-92"
  GI50: "42 µM (inactive)"
- compound: "Nc1ccc2ccc(-c3ccc[nH]3)nc2n1"
  targetSystem: "HOP-92"
  GI50: "> 100 µM (inactive)"
- compound: "Cn1cnc([N+](=O)[O-])c1Sc1nc2cc(Cl)c(F)cc2[nH]1"
  targetSystem: "HOP-92"
  GI50: "13.8 µM (inactive)"
